Data provenance: ChEMBL document CHEMBL1125399

Item-by-item account of Body weight
# System: Mus musculus
# Method description: Effect on the mean body weight of mice on day 5 (post) of swiss CD-1 mice (charles river), in groups of six dosed orally once per day for 4 days with 50 mg/kg of compound
# Format: functional
# Test parameters: route oral
Write it as a number; the unit g goes unstated.

Reference set (2 entries):
Smiles str	Readout unit	Number
CCCCN(Cc1ccccc1)C(=O)C(F)(F)C(F)(F)C(F)(F)C(F)(F)C(F)(F)C(F)(F)C(F)(F)F	g	31.1
CCCCCCC(F)(F)C(=O)Nc1ccc(Cc2nn[nH]n2)cc1	g	31.7

Look up Body weight: O=C(Nc1ccc(Cc2nn[nH]n2)cc1)C(F)(F)C(F)(F)C(F)(F)C(F)(F)C(F)(F)C(F)(F)C(F)(F)F
31.4

Look up Body weight: O=C(Nc1ccncc1)C(F)(F)C(F)(F)C(F)(F)C(F)(F)C(F)(F)C(F)(F)C(F)(F)F
32.4

---

Item-by-item account of Body weight
# Tested on: Mus musculus
# Method description: Effect on the mean body weight of mice on day 5 (post) of swiss CD-1 mice (charles river), in groups of six dosed orally once per day for 4 days with 50 mg/kg of compound
# Format: functional
# Test parameters: route oral
Write it as a number; the unit g goes unstated.

Smiles str	Readout unit	Body weight
CN(C(=O)C(F)(F)C(F)(F)C(F)(F)C(F)(F)C(F)(F)C(F)(F)C(F)(F)F)c1ccc(Cc2nnnn2C)cc1	g	31.1
Cl.Nc1ccc(Cc2nn[nH]n2)cc1	g	30.1
O=C(N(Cc1ccccc1)c1ccc(Cc2nn[nH]n2)cc1)C(F)(F)C(F)(F)C(F)(F)C(F)(F)C(F)(F)C(F)(F)C(F)(F)C(F)(F)F	g	31.3
CCCCCCCC(=O)NNC(=O)C(F)(F)C(F)(F)C(F)(F)C(F)(F)C(F)(F)C(F)(F)C(F)(F)F	g	30.6
FC(F)(F)C(F)(F)C(F)(F)C(F)(F)C(F)(F)C(F)(F)C(F)(F)CNc1ccc(Cc2nn[nH]n2)cc1	g	31.2

Look up Body weight: O=C(Nc1ccc(Cc2nnn(Cc3ccccc3)n2)cc1)C(F)(F)C(F)(F)C(F)(F)C(F)(F)C(F)(F)C(F)(F)C(F)(F)F
31.4
